For each entry below, report its protein stability index value.
B1: STX5 (parent)
chain: RSEFTLMAKRIGKDLSNTFAKLEK

Variants of: B1
Test: protein stability index of a GFP-peptide fusion (GPS, HEK-293T) (PSI 1-6); higher = more stable;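 further: lentivirally expressed fusions sorted by FACS into six bins by GFP to DsRed ratio, PSI derived from sequencing read proportions per bin multiplied by bin number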
Settings: c terminus: a fixed tail appended
One number for each entry.

Answered cases to consult:
RESIDUE_CODES: RSEFTLMAKKIGKDLSNTFAKLEK [R10K]
READOUT_NUMBER: 3.31

RESIDUE_CODES: RSEFTLPAKRIGKDLSNTFAKLEK [M7P]
READOUT_NUMBER: 3.36

RESIDUE_CODES: RSEFFLMAKRIGKDLSNTFAKLEK [T5F]
READOUT_NUMBER: 3.04

RESIDUE_CODES: RSEFTLMAKRIGKDLSNTFAKKEK [L22K]
READOUT_NUMBER: 2.47

RESIDUE_CODES: RSEFTLMAKRPGKDLSNTFAKLEK [I11P]
READOUT_NUMBER: 3.52

// each variant listed below needs its protein stability index
1. RSEFTLMAKRIGKKLSNTFAKLEK [D14K]
2. RSEFTLMAKRIGKDLSNTFACLEK [K21C]
3. RSENTLMAKRIGKDLSNTFAKLEK [F4N]

1. 3.03
2. 2.69
3. 2.98

// each variant listed below needs its protein stability index
1. ASEFTLMAKRIGKDLSNTFAKLEK [R1A]
2. RSEFKLMAKRIGKDLSNTFAKLEK [T5K]
3. RSEFTLMAKRIGKDLSNTCAKLEK [F19C]
4. RSEFTLMAKRIGKDLSSTFAKLEK [N17S]
5. RSEFTLMAKRIGKDLSNNFAKLEK [T18N]
6. RSEMTLMAKRIGKDLSNTFAKLEK [F4M]

2.12
1.54
2.69
3.13
1.27
2.35
